Here the recorded Kd is given for each entry.
# Study system: T1, rhesus CD45 ectodomain (Macaca mulatta, UniProt A0A1D5R142)
# T1 construct: purified human, rhesus or cynomolgus CD45 ectodomain
# T1 sequence (A0A1D5R142 26-581): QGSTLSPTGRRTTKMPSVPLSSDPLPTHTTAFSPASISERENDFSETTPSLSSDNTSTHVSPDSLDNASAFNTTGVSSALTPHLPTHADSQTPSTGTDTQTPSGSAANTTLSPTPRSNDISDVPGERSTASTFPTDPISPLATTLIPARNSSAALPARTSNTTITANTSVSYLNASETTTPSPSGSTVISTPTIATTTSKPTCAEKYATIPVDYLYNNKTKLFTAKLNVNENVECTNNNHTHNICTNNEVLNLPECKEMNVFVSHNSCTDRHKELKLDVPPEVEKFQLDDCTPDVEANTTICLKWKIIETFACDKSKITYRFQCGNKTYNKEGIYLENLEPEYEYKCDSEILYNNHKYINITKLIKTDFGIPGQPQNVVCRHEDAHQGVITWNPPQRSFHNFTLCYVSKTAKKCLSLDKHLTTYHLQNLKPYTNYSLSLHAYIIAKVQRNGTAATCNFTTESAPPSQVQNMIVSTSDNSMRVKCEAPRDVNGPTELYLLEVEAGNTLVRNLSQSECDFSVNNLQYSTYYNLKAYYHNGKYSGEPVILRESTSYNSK
# Assay details: Biolayer interferometry (BLI, Octet) binding of immobilized IgG to purified CD45 ectodomain
# Conditions used: Table 2, Rhesus CD45; 50 nM antigen (Ab1: 300 nM)
Express it in nM; write the number only.

See these solved cases before continuing.
Molecule: Ab5: variant of Ab4 with asparagine to serine substitution in CDR-L1; VH SEQ ID NO:41, VL SEQ ID NO:45 (antibody, V domains shown) VH: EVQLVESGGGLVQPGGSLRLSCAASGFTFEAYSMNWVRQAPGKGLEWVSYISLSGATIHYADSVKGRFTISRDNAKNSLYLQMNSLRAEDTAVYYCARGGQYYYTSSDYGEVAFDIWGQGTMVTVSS VL: DIVMTQSPLSLPVTPGEPASISCRSSQSLVSSGYNYLDWYLQKPGQSPQLLIYFGSSRASGVPDRFSGSGSGTDFTLKISRVEAEDVGVYYCMQRRRTPWSFGGGTKVEIK
Kd / nM: 1.71

Molecule: Ab3: affinity matured human anti-CD45 IgG derived from Ab1; VH SEQ ID NO:21, VL SEQ ID NO:25 (antibody, V domains shown) VH: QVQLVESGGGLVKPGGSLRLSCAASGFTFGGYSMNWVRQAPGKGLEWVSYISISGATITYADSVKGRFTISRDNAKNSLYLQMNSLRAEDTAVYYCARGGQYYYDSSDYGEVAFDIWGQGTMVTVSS VL: DIVMTQSPLSLPVTPGEPASISCRSSQSLVSNGYNYLDWYLQKPGQSPQLLIYFGSSRASGVPDRFSGSGSGTDFTLKISRVEAEDVGVYYCMQRRRTPPFTFGGGTKVEIK
Kd / nM: 1.65

Molecule: Ab4: affinity matured human anti-CD45 IgG derived from Ab1; VH SEQ ID NO:31, VL SEQ ID NO:35 (antibody, V domains shown) VH: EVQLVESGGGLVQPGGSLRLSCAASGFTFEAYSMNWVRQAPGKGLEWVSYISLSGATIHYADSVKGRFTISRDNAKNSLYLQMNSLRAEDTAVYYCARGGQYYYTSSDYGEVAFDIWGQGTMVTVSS VL: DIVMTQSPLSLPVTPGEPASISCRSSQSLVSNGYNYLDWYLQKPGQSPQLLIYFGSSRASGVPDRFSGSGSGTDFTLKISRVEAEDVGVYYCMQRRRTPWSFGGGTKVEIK
Kd / nM: 0.867

Molecule: Ab6: affinity matured human anti-CD45 IgG derived from Ab1; VH SEQ ID NO:51, VL SEQ ID NO:55 (antibody, V domains shown) VH: EVQLVESGGGLVQPGGSLRLSCAASGFTFEAYSMNWVRQAPGKGLEWVSYISLSGATIHYADSVKGRFTISRDNAKNSLYLQMNSLRAEDTAVYYCARGGQYYYTSSDYGEVAFDIWGQGTLVTVSS VL: DIVLTQSPLSLPVTPGEPASISCRSSQSLVSSGYNYLDWYLQKPGQSPQLLIYFGSSRASGVPDRFSGSGSGTDFTLKISRVEAEDVGVYYCMQRRRTPWSFGGGTKVEIK
Kd / nM: 1.44

Molecule: Ab2: affinity matured human anti-CD45 IgG derived from Ab1; VH SEQ ID NO:11, VL SEQ ID NO:15 (antibody, V domains shown) VH: EVQLVESGGGLVQPGGSLRLSCAASGFTFEAYSMNWVRQAPGKGLEWVSYISLSGATIHYADSVKGRFTISRDNAKNSLYLQMNSLRAEDTAVYYCARGGQYYYDSSDYGEVAFDIWGQGTMVTVSS VL: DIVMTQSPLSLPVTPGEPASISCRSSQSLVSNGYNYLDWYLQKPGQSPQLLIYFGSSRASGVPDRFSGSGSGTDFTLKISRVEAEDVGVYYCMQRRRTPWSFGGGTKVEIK
Kd / nM: 1.42

Alright, here's another molecule for you.
Name the recorded Kd for Ab7: variant of Ab3 with asparagine to serine substitution in CDR-L1; VH SEQ ID NO:61, VL SEQ ID NO:65 (antibody, V domains shown) VH: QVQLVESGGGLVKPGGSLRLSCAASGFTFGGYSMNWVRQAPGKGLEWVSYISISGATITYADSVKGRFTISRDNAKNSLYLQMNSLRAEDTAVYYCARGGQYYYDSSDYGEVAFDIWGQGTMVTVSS VL: DIVMTQSPLSLPVTPGEPASISCRSSQSLVSSGYNYLDWYLQKPGQSPQLLIYFGSSRASGVPDRFSGSGSGTDFTLKISRVEAEDVGVYYCMQRRRTPPFTFGGGTKVEIK .
4.39
